Every entry's value here was drawn from ChEMBL document CHEMBL3885861.

Please respond with reported MCV for every item in the list.
organism: Rattus norvegicus; test: Open TG-GATES - Regimen: Daily Repeat; format: toxicity, organism-based, Sprague-Dawley; design: regimen Daily Repeat, gender Male, age 6 weeks; conditions: in vivo, po, 0 mg/kg, […], tissue Blood, route gavage, dose level Control, time 7 day
Reply with just the number (in fL).

// query Please give the measured MCV for this compound: CC(C)NNC(=O)c1ccncc1
// result 58.6

// query Please give the measured MCV for this compound: CCCc1cc(=O)[nH]c(=S)[nH]1
// result 63.6

// query Please give the measured MCV for this compound: Brc1ccccc1
// result 61.9

// query Please give the measured MCV for this compound: NC1=NC(=O)C(c2ccccc2)O1 (stereo not drawn)
// result 62.7

// query Please give the measured MCV for this compound: CNC(=C[N+](=O)[O-])NCCSCc1ccc(CN(C)C)o1
// result 61.7

// query Please give the measured MCV for this compound: CN1C(=O)CCS(=O)(=O)C1c1ccc(Cl)cc1 (stereo not drawn)
// result 65.3

// query Please give the measured MCV for this compound: CN/C(=N/CCSCc1nc[nH]c1C)NC#N
// result 64.2

// query Please give the measured MCV for this compound: Nc1c2c(nc3ccccc13)CCCC2
// result 60.1

// query Please give the measured MCV for this compound: O=C(OC[C@H]1O[C@@H](OC(=O)c2cc(O)c(O)c(OC(=O)c3cc(O)c(O)c(O)c3)c2)[C@H](OC(=O)c2cc(O)c(O)c(OC(=O)c3cc(O)c(O)c(O)c3)c2)[C@@H](OC(=O)c2cc(O)c(O)c(OC(=O)c3cc(O)c(O)c(O)c3)c2)[C@@H]1OC(=O)c1cc(O)c(O)c(OC(=O)c2cc(O)c(O)c(O)c2)c1)c1cc(O)c(O)c(OC(=O)c2cc(O)c(O)c(O)c2)c1
// result 63.9

// query Please give the measured MCV for this compound: CN(C)CCC(c1ccc(Cl)cc1)c1ccccn1 (stereo not drawn)
// result 63.3

// query Please give the measured MCV for this compound: CCOc1ccc(NC(C)=O)cc1
// result 62.6

// query Please give the measured MCV for this compound: COC(=O)C1=C(C)NC(C)=C(C(=O)OC)C1c1ccccc1[N+](=O)[O-]
// result 64.1

// query Please give the measured MCV for this compound: Cc1nnc2n1-c1ccc(Cl)cc1C(c1ccccc1Cl)=NC2
// result 61.2
